# ASSAY_TEXT: qHTS of small molecules that selectively kill Giardia lamblia: Hit Validation.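 Note: viability measured as ATP content by luminescence so killing lowers signal; trophozoites exposed to compounds for 48 h anaerobically at 37 °C; nearly all actives have a fitted effect of over 65% in size.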
# TEST_CONDITIONS: Giardia lamblia trophozoite viability, dose-response; series mostly up to 38.3 µM
Out of some 1,300 compounds screened, about 1,000 (77%) were called active. Another 7% or so got no clear call; they are omitted. Calls come from the whole dose curve; as a rule, active = well fitted inhibition curve with a large enough effect; inconclusive = small, poorly fitted or top-dose-only effect; inactive = no such curve, though single readings can be large or run the other way. So high a share suggests a set chosen from earlier hits. This is one part of the list.
Permitted responses: active, inactive

Worked cases, answers included:
COc1ccccc1C1C([N+](=O)[O-])=CC([N+](=O)[O-])=CN1C (stereo unspecified)
active
O=C(N/N=C\c1ccc([N+](=O)[O-])s1)C1COc2ccccc2O1 (stereo unspecified)
active
Cc1ccc2nc(N/N=C\c3ccc([N+](=O)[O-])o3)nc(-c3ccccc3)c2c1
active
Cc1onc(-c2ccccc2)c1C(=O)N/N=C/c1ccc([N+](=O)[O-])c(O)c1
active
C=CCNc1ncnc2sc(SC)nc12
inactive

Incoming: Which outcome did this test record for the compound CC(Nc1nc(N2CCN(CCO)CC2)nc2ccccc12)c1ccccc1 (stereo unspecified) ?
Outgoing: active

Incoming: Tell me the assay call for `O=[N+]([O-])c1ncc(Br)cc1Nc1ccccc1` please.
Outgoing: active

Incoming: What classification did `O=[N+]([O-])c1cccc2nc3ccccc3c(NCCCn3ccnc3[N+](=O)[O-])c12` end up with in this test?
Outgoing: active

Incoming: What classification did O=C(NCC1CCCO1)c1ccc([N+](=O)[O-])o1 (stereo unspecified) end up with in this test?
Outgoing: active

Incoming: Hello, I am checking results. What call was entered for `O=[N+]([O-])c1ccc(/C=N/Nc2nc(-c3ccccc3)c3cc(Br)ccc3n2)o1` ?
Outgoing: active

Incoming: Returns: the outcome recorded for `Cc1cc(N/N=C/c2ccc([N+](=O)[O-])o2)nc2ccccc12` in this assay.
Outgoing: active

Ref: PubChem BioAssay AID588397
